FYI, the data here is from PubChem BioAssay (NCI).

- Test system: OVCAR-3 ovarian
- assay: NCI tumour cell line growth inhibition, 48 h
observedProperty: log10 of TGI (log10 of the value in µM)

# compound, log10 of TGI
measured = [
    ("COc1ccc2c(c1)N(CCO)C1=C(C(=O)OC1)C2c1cccc(Br)c1 (stereo not drawn)", -0.87),
    ("COc1ccc(/C=C/C(=O)c2ccc(NC(=O)CSc3nnc(-c4cc(OC)c(OC)c(OC)c4)o3)cc2)cc1", 0.53),
    ("COc1cccc(-c2cc(NCc3ccc4c(c3)OCO4)nc(N)n2)c1", -0.01),
    ("CCC1=C[C@H]2CN(CCc3c([nH]c4ccccc34)[C@@](C(=O)OC)(c3cc4c(cc3OC)N(C)[C@H]3[C@@](O)(C(=O)OC)[C@H](OC(C)=O)[C@]5(CC)[C@@H]6C[C@@H]6CN6CC[C@]43[C@@H]65)C2)C1", 0.41),
    ("CC1=C(C(=O)Nc2ccc(Cl)c(Cl)c2)C(c2cccc(O)c2)NC(=S)N1 (stereo not drawn)", 1.10),
]

----------
- Tested on: ACHN renal
- assay: NCI tumour cell line growth inhibition, 48 h; in the data active = GI50 below about 0.43 µM; inactive = the rest
Outcomes: 1 (active), 0 (inactive)

# compound, measuredOn, qualitativeLabel
measured = [
    ("N=c1c2c(=O)n3c(nc2nc2sc4ccc(Cl)cc4n12)-c1ccccc1Sc1ccccc1-3", "ACHN renal", 0),
    ("COc1ccc2cc(C(=O)/C=C/c3ccccc3OC)ccc2c1", "ACHN renal", 0),
    ("COc1cc2c(cc1C)NC(=O)/C2=C/c1c(C)nc2sc(C)cn12", "ACHN renal", 0),
    ("COc1ccc(/C=C/C(=O)c2ccc(NC(=O)CSc3nnc(-c4cc(OC)c(OC)c(OC)c4)o3)cc2)cc1", "ACHN renal", 0),
    ("N#CC(C#N)=Cc1ccc(-c2ccc(-c3nc4ccccc4s3)cc2)s1", "ACHN renal", 0),
    ("Cc1cc(Cl)ccc1Nc1nc(C(F)(F)F)ccc1C(=O)N/N=C/c1c(Cl)cccc1Cl", "ACHN renal", 1),
    ("COc1cc2c(/C=C3/C(=O)Nc4c3ccc3ccccc43)c(Cl)[nH]c2cc1C", "ACHN renal", 1),
    ("OCCCNC(=S)Nc1ccc(-c2nc3ccccc3s2)cc1", "ACHN renal", 0),
    ("COc1ccc2c(c1)N(CCO)C1=C(C(=O)OC1)C2c1cccc(Br)c1 (stereo not given)", "ACHN renal", 1),
    ("CSc1ccc2c(c1)C(=O)c1c-2n(CCCN=[N+]=[N-])c(=O)c2cc([N+](=O)[O-])ccc12", "ACHN renal", 0),
    ("CCN1CCN(Cc2ccc3cc(C(=O)Nc4cc(NC(=O)c5ccc6c(c5)OCCO6)ccc4F)ccc3n2)CC1", "ACHN renal", 1),
    ("COc1ccc2c(c1)CC[C@@H]1[C@@H]2CC[C@]2(C)c3c(cc(C(=O)c4ccccc4)c4sccc34)C[C@@H]12", "ACHN renal", 0),
    ("COc1ccc2oc(-c3ccc(Cl)cc3)c(N3CCN(C)CC3)c2c1", "ACHN renal", 0),
    ("NNc1nc(-c2ccccn2)nc2sc3c(c12)CCCCCC3", "ACHN renal", 0),
    ("COc1ccc(C2SC(C)C(=O)N2NC(=O)C(O)c2ccccc2)cc1 (stereo not given)", "ACHN renal", 0),
]
